- System: 379773-124-R-J2-PDC complex spheroids, viability % test/control;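 note: compound exposure lasted seven days before the viability readout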
- assay: Anticancer human tumor 379773-124-R-J2-PDC patient-derived endometrial carcinoma cell line growth inhibition [CLK]
- experimental conditions: second compound 10 µM; first compound 0.316 µM; hits give low values
Threshold 1%. viability, T/C below it: condition met. viability, T/C at it or above: condition not met.

# count of solved cases: 5
Qu. Please check: viability, T/C for O=C(c1cc(Cc2n[nH]c(=O)c3ccccc23)ccc1F)N1CCN(C(=O)C2CC2)CC1 + CN1CCN(c2cc(C(=O)Nc3cc4cc(-c5cnn(C)c5)ccc4cn3)ccn2)CC1 , strictly under 1% or not?
Ans. condition met

Qu. Next compound: Nc1ccccc1NC(=O)c1ccc(CNC(=O)OCc2cccnc2)cc1 + CN1CCN(c2cc(C(=O)Nc3cc4cc(-c5cnn(C)c5)ccc4cn3)ccn2)CC1
Ans. condition met

Qu. How about C=CC(=O)N1CCN(c2nc(=O)n(-c3c(C)ccnc3C(C)C)c3nc(-c4c(O)cccc4F)c(F)cc23)C(C)C1 (stereo unspecified) + CN1CCN(c2cc(C(=O)Nc3cc4cc(-c5cnn(C)c5)ccc4cn3)ccn2)CC1 ?
Ans. condition not met

Qu. How about C#Cc1c(F)ccc2cc(O)cc(-c3ncc4c(N5CC6CCC(C5)N6)nc(OCC56CCCN5CC(F)C6)nc4c3F)c12 (stereo unspecified) + CNC(=O)c1ccc(Nc2nc(OC3CCCC3)c3c(-c4ccc5nc(C)oc5c4)c[nH]c3n2)c(OC)c1 ?
Ans. condition not met

Qu. Item: C=C(F)C(=O)N1CCN(c2nc(OCC3CCCN3C)nc3c2CCN(c2cccc4cccc(Cl)c24)C3)CC1CC#N (stereo unspecified) + CN1CCN(c2cc(C(=O)Nc3cc4cc(-c5cnn(C)c5)ccc4cn3)ccn2)CC1
Ans. condition met

Consider now this further compound.
Qu. Input COc1ccc([C@@H](O)c2cc(-c3ncnc4cc(N5CCOCC5)ccc34)c(F)cc2Cl)nn1 + CNC(=O)c1ccc(Nc2nc(OC3CCCC3)c3c(-c4ccc5nc(C)oc5c4)c[nH]c3n2)c(OC)c1 ; condition: viability, T/C strictly below 1%. Does it hold?
Ans. condition not met
